- TEST_PROTOCOL: Single dose intravenous and oral PK in Beagle dogs (citrate salt)
- Type: in vivo
- PROTOCOL_CONDITIONS: both sexes, beagle, dog, whole blood; IV 4 mg/kg
ASSAY_ENDPOINT: Tmax (min)
Lab book: enter the figure in min, no units written.

Complete the entry with Tmax for CC(C)C[C@@H]1NCCN([C@@H](CC(C)C)C(=O)N2CCC3(C[C@@H]2C)OCC(CN2CCCC2)CO3)C1=O (stereo partly shown) [Compound 1]
4.8

---

- TEST_PROTOCOL: 5-day daily oral repeated-dose pilot study in Beagle dogs (mesylate salt)
- Assay type: in vivo
- PROTOCOL_CONDITIONS: both sexes, Beagle, dog, plasma, po, 2 mg/kg, Day 1
ASSAY_ENDPOINT: Cmax (ng/mL)
Write the answer as a number in ng/mL, unit excluded.

Name the recorded Cmax of the item CC(C)C[C@@H]1NCCN([C@@H](CC(C)C)C(=O)N2CCC3(C[C@@H]2C)OCC(CN2CCCC2)CO3)C1=O (stereo partly shown) [Compound 1] in your answer.
33.6

---

- TEST_PROTOCOL: Single dose oral gavage or intravenous PK in female cynomolgus monkeys, plasma
- Type: in vivo
- PROTOCOL_CONDITIONS: female, cynomolgus monkey, plasma; po 12 mg/kg
ASSAY_ENDPOINT: AUC(0-inf)
A complete answer gives the number and then names the unit.

Identify AUC(0-inf) associated with the molecule CC(C)C[C@@H]1NCCN([C@@H](CC(C)C)C(=O)N2CCC3(C[C@@H]2C)OCC(CN2CCCC2)CO3)C1=O (stereo partly shown) [Compound 1]
0.133 µg·h/mL

---

- TEST_PROTOCOL: 28-day once weekly oral repeated-dose DRF TK study in Beagle dogs (mesylate salt), plasma
- Assay type: in vivo
- PROTOCOL_CONDITIONS: both sexes, Beagle, dog, plasma, po, 15 mg/kg, 15 mg/kg weekly, Day 1
ASSAY_ENDPOINT: AUC (ng·h/mL)
Write the number in ng·h/mL without appending the unit.

Report AUC for CC(C)C[C@@H]1NCCN([C@@H](CC(C)C)C(=O)N2CCC3(C[C@@H]2C)OCC(CN2CCCC2)CO3)C1=O (stereo partly shown)
2630

---

- TEST_PROTOCOL: 14-day daily oral repeated-dose DRF study in cynomolgus monkeys (mesylate salt)
- Assay type: in vivo
- PROTOCOL_CONDITIONS: cynomolgus monkey, plasma, po, 4 mg/kg, 4 mg/kg (Gr. 1), Day 5
ASSAY_ENDPOINT: Tmax
# output: numeric value plus its unit

Report Tmax, nothing else, for this compound: CC(C)C[C@@H]1NCCN([C@@H](CC(C)C)C(=O)N2CCC3(C[C@@H]2C)OCC(CN2CCCC2)CO3)C1=O (stereo partly shown) [Compound 1]
1 h

---

- TEST_PROTOCOL: Single dose oral gavage or intravenous PK in female cynomolgus monkeys, plasma
- Format: in vivo
- PROTOCOL_CONDITIONS: female, cynomolgus monkey, plasma; IV 0.2 mg/kg
ASSAY_ENDPOINT: AUC(0-inf) (ng·h/mL)
Express the result in ng·h/mL but write the number alone.

For the molecule CC(C)C[C@@H]1NCCN([C@@H](CC(C)C)C(=O)N2CCC3(C[C@@H]2C)OCC(CN2CCCC2)CO3)C1=O (stereo partly shown) , give its reported AUC(0-inf).
77.4
